The values you see were collected from the kinase profiling compilation of Christmann-Franck et al. (2016).

Molecular target: SBK1 (human) (UniProt Q52WX2)
Sequence (Q52WX2 whole entry, looked up): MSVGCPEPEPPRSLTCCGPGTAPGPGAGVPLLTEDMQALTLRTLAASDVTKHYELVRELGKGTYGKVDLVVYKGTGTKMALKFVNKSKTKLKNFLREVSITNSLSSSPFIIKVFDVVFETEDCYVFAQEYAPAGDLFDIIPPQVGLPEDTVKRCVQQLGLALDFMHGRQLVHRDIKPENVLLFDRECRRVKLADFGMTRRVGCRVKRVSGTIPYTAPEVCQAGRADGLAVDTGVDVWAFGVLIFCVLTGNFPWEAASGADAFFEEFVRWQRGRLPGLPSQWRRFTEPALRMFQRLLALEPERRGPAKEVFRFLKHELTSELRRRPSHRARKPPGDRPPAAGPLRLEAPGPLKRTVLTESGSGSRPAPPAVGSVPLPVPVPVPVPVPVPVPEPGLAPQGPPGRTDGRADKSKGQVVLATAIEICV
Assay: KINOMEscan competition binding
Settings: compound 10.0 µM
assay.readout: kinase still bound, per cent of control

[[record]]
smiles_notation = "C=CC(=O)Nc1cccc(Nc2nc(N[C@H]3CC[C@H](N(C)C)CC3)nc3c2ncn3C(C)C)c1"
assay_readout = "kinase still bound, per cent of control"
recorded_measurement = "20%"

[[record]]
smiles_notation = "Cc1ccc(NC(=O)c2cccc(C(C)(C)C#N)c2)cc1Nc1ccc2ncn(C)c(=O)c2c1"
assay_readout = "kinase still bound, per cent of control"
recorded_measurement = "79%"

[[record]]
smiles_notation = "CN(C)C/C=C/C(=O)Nc1cccc(Nc2ncc3c(n2)N(C)c2ccccc2C(=O)N3C)c1"
assay_readout = "kinase still bound, per cent of control"
recorded_measurement = "7.6%"

[[record]]
smiles_notation = "CCC(=O)N1CCN(c2ccc(-n3c(=O)ccc4cnc5ccc(-c6cnc7ccccc7c6)cc5c43)cc2C(F)(F)F)CC1"
assay_readout = "kinase still bound, per cent of control"
recorded_measurement = "88%"

[[record]]
smiles_notation = "O=C(NOC[C@H](O)CO)c1ccc(F)c(F)c1Nc1ccc(I)cc1F"
assay_readout = "kinase still bound, per cent of control"
recorded_measurement = "100%"

[[record]]
smiles_notation = "Cc1cc([C@@H](C)Nc2ccccc2C(=O)O)c2nc(N3CCOCC3)cc(=O)n2c1"
assay_readout = "kinase still bound, per cent of control"
recorded_measurement = "100%"

[[record]]
smiles_notation = "O=C(NC1CC1)c1cccc(-c2ccc3c(NC(=O)C4CC4)n[nH]c3c2)c1"
assay_readout = "kinase still bound, per cent of control"
recorded_measurement = "100%"

[[record]]
smiles_notation = "O=C1Nc2ccc(I)cc2/C1=C/c1cc(Br)c(O)c(Br)c1"
assay_readout = "kinase still bound, per cent of control"
recorded_measurement = "85%"

[[record]]
smiles_notation = "COc1cc(N2CCN(C)CC2)ccc1Nc1nc(N)c(C(=O)c2c(Cl)cccc2Cl)s1"
assay_readout = "kinase still bound, per cent of control"
recorded_measurement = "80%"


====

Molecular target: MARK1 (human) (UniProt Q9P0L2)
Sequence (Q9P0L2 whole entry, looked up): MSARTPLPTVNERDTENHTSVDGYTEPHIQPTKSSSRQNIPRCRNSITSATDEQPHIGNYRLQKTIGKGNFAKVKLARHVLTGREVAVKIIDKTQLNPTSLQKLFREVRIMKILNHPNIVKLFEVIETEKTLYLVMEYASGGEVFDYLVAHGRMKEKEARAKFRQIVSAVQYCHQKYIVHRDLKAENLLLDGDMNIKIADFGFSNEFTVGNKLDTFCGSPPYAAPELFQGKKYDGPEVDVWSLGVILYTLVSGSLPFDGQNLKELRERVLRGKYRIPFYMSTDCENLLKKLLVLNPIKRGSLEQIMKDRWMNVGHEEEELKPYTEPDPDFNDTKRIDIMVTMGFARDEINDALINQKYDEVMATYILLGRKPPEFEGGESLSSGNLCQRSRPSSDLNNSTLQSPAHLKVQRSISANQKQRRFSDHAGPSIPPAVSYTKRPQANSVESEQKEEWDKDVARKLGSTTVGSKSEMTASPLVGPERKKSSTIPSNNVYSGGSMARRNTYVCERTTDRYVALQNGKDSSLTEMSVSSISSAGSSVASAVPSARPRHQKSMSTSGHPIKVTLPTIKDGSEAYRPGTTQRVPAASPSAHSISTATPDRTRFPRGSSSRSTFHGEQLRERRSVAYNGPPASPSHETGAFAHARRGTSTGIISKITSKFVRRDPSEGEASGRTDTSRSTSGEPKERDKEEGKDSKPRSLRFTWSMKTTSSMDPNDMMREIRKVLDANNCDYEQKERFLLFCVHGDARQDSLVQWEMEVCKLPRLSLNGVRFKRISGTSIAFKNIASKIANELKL
Test: KINOMEscan competition binding
Conditions: compound 10.0 µM
assay.readout: kinase still bound, per cent of control (%)

[[record]]
compound = "CCOc1cc2ncc(C#N)c(Nc3ccc(OCc4ccccn4)c(Cl)c3)c2cc1NC(=O)/C=C/CN(C)C"
assay_readout = "kinase still bound, per cent of control"
recorded_measurement = 94

[[record]]
compound = "COc1cc(C(=O)NC2CCN(C)CC2)ccc1Nc1ncc2c(n1)N(C1CCCC1)CCC(=O)N2C(C)C"
assay_readout = "kinase still bound, per cent of control"
recorded_measurement = 100

[[record]]
compound = "Cc1ccc(NC(=O)c2cccc(C(C)(C)C#N)c2)cc1Nc1ccc2ncn(C)c(=O)c2c1"
assay_readout = "kinase still bound, per cent of control"
recorded_measurement = 100

[[record]]
compound = "CN(C)C/C=C/C(=O)Nc1cccc(Nc2ncc3c(n2)N(C)c2ccccc2C(=O)N3C)c1"
assay_readout = "kinase still bound, per cent of control"
recorded_measurement = 4.3

[[record]]
compound = "CCC(=O)N1CCN(c2ccc(-n3c(=O)ccc4cnc5ccc(-c6cnc7ccccc7c6)cc5c43)cc2C(F)(F)F)CC1"
assay_readout = "kinase still bound, per cent of control"
recorded_measurement = 100

[[record]]
compound = "Cc1ccc2nc(NCCN)c3ncc(C)n3c2c1"
assay_readout = "kinase still bound, per cent of control"
recorded_measurement = 100

[[record]]
compound = "O=C(NOC[C@H](O)CO)c1ccc(F)c(F)c1Nc1ccc(I)cc1F"
assay_readout = "kinase still bound, per cent of control"
recorded_measurement = 100

[[record]]
compound = "CC[C@@H]1C(=O)N(C)c2cnc(Nc3ccc(C(=O)NC4CCN(C)CC4)cc3OC)nc2N1C1CCCC1"
assay_readout = "kinase still bound, per cent of control"
recorded_measurement = 100

[[record]]
compound = "C=CC(=O)Nc1cc(NC(=O)c2ccc(C)c(NC(=O)c3ccno3)c2)cc(C(F)(F)F)c1"
assay_readout = "kinase still bound, per cent of control"
recorded_measurement = 100

[[record]]
compound = "COc1cc(C(=O)NC2CCN(C)CC2)ccc1Nc1ncc2c(n1)N(C1CCCC1)C(C)CC(=O)N2C (centres undefined)"
assay_readout = "kinase still bound, per cent of control"
recorded_measurement = 100

[[record]]
compound = "C=CC(=O)Nc1cccc(Oc2nc(Nc3ccc(N4CCN(C)CC4)cc3OC)ncc2Cl)c1"
assay_readout = "kinase still bound, per cent of control"
recorded_measurement = 11

[[record]]
compound = "Cc1cc([C@@H](C)Nc2ccccc2C(=O)O)c2nc(N3CCOCC3)cc(=O)n2c1"
assay_readout = "kinase still bound, per cent of control"
recorded_measurement = 100

[[record]]
compound = "OCCCNc1cc(-c2ccnc(Nc3cccc(Cl)c3)n2)ccn1"
assay_readout = "kinase still bound, per cent of control"
recorded_measurement = 100

[[record]]
compound = "N#Cc1c(NC(=O)c2cccc3ccccc23)sc2c1CCCC2"
assay_readout = "kinase still bound, per cent of control"
recorded_measurement = 100

[[record]]
compound = "O=C(O)c1ccc(Nc2ncc3c(n2)-c2ccc(Cl)cc2C(c2c(F)cccc2F)=NC3)cc1"
assay_readout = "kinase still bound, per cent of control"
recorded_measurement = 100

[[record]]
compound = "C=CC(=O)Nc1cccc(Nc2nc(N[C@H]3CC[C@H](N(C)C)CC3)nc3c2ncn3C(C)C)c1"
assay_readout = "kinase still bound, per cent of control"
recorded_measurement = 94

[[record]]
compound = "Cc1ccc(C(=O)Nc2cccc(C(F)(F)F)c2)cc1Nc1cncc(C(N)=O)c1"
assay_readout = "kinase still bound, per cent of control"
recorded_measurement = 100

[[record]]
compound = "Cn1c(=O)n(-c2ccc(C(C)(C)C#N)cc2)c2c3cc(-c4cnc5ccccc5c4)ccc3ncc21"
assay_readout = "kinase still bound, per cent of control"
recorded_measurement = 100

[[record]]
compound = "CCN1CCN(Cc2ccc(Nc3ncc4c(n3)N(C)c3ccccc3C(=O)N4C)cc2C(F)(F)F)CC1"
assay_readout = "kinase still bound, per cent of control"
recorded_measurement = 21

[[record]]
compound = "Nc1ccc(-c2ccc3ncc4ccc(=O)n(-c5cccc(C(F)(F)F)c5)c4c3c2)cn1"
assay_readout = "kinase still bound, per cent of control"
recorded_measurement = 100

[[record]]
compound = "C[C@@H](Oc1cc(-n2cnc3ccc(CN4CCN(C)CC4)cc32)sc1C(N)=O)c1ccccc1C(F)(F)F"
assay_readout = "kinase still bound, per cent of control"
recorded_measurement = 100

[[record]]
compound = "CCCS(=O)(=O)Nc1ccc(F)c(C(=O)c2c[nH]c3ncc(-c4ccc(Cl)cc4)cc23)c1F"
assay_readout = "kinase still bound, per cent of control"
recorded_measurement = 100

[[record]]
compound = "O=C1Nc2ccc(I)cc2/C1=C/c1cc(Br)c(O)c(Br)c1"
assay_readout = "kinase still bound, per cent of control"
recorded_measurement = 99

[[record]]
compound = "O=C(NC1CC1)c1cccc(-c2ccc3c(NC(=O)C4CC4)n[nH]c3c2)c1"
assay_readout = "kinase still bound, per cent of control"
recorded_measurement = 96

